src = patent US20250320312A1

- TESTED ON: T1, Peptide 4: Biotin-AGGGGSGGGGSGGGGSAAA-Tyr-acid (N-terminal biotin; C-terminal acid)
- T1 construct: control peptide without PC
- T1 peptide: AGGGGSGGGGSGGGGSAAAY
- PROCEDURE DETAILS: scFv ELISA
MEASUREMENT KIND: OD450

1. PcOxP_DB01_B05 (scFv, V domains shown, scFv in periplasmic extract) VH: EVQLLESGGGLVQPGGSLRLSCAASGFTASDFYMEWVRQAPGKGLEWVAASRNKWNDYTTEYADSVKGRFTISRDNSKNTLYLQMNSLRAEDTAVYYCARDYYGSSYWYFDVWGQGTLVTVSS VL: DIQMTQSPSSLSASVGDRVTITCTASESLYSSKHKVHYLAWYQQKPGKAPKLLIYGASSLQIGVPSRFSGSGSGTDFTLTISSLQPEDFATYYCAQFYSYPLTFGGGTKVEIK ... 0.05 OD450
2. PcOxP_DB01_A12 (scFv, V domains shown, scFv in periplasmic extract) VH: EVQLLESGGGLVQPGGSLRLSCAASGFGFSDFYMEWVRQAPGKGLEWVAASRNKWNDYTTEYADSVKGRFTISRDNSKNTLYLQMNSLRAEDTAVYYCARDYYGSSYWYYDVWGQGTLVTVSS VL: DIQMTQSPSSLSASVGDRVTITCTASESLYSSKHKVHYLAWYQQKPGKAPKLLIYGASNREIGVPSRFSGSGSGTDFTLTISSLQPEDFATYYCQQFYSYPLTFGGGTKVEIK ... 0.06 OD450

### Prompt Quick check: OD450 of PcOxP_DB01_F04 (scFv, V domains shown, scFv in periplasmic extract) VH: EVQLLESGGGLVQPGGSLRLSCAASGFTFSSYYMEWVRQAPGKGLEWVAASRNKYNDYTTEYADSVKGRFTISRDNSKNTLYLQMNSLRAEDTAVYYCARDYYGSSYWYFDVWGQGTLVTVSS VL: DIQMTQSPSSLSASVGDRVTITCTASESLYSSKHKVHYLAWYQQKPGKAPKLLIYGAVNRYIGVPSRFSGSGSGTDFTLTISSLQPEDFATYYCAQFYRYPLTFGGGTKVEIK ?
### Response 0.05 OD450
